target: Neuronal acetylcholine receptor subunit alpha-7 (Rattus norvegicus, UniProt Q05941); assay: Agonist activity at rat alpha7 nAChR expressed in HEK293 cells co-expressing human RIC-3 assessed as increase in calcium flux measured for 2 mins by Fluo-4 AM dye based FLIPR assay
Sequence (Q05941 whole entry): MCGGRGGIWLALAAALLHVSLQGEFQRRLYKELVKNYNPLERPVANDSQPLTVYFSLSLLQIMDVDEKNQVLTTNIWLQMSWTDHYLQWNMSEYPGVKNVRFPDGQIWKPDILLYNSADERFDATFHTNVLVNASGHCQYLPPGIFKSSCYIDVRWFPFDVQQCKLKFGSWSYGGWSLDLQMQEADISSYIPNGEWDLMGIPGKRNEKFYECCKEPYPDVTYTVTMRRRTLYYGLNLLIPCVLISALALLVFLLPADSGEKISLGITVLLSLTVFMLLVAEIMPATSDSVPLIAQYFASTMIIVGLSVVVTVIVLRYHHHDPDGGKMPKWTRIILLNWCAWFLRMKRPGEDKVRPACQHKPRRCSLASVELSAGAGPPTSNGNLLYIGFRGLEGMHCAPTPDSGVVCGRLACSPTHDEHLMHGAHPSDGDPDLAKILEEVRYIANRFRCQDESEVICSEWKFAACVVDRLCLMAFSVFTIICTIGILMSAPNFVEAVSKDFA
Reported Property: pEC50
Give bare numbers, as −log10 of the molar value.

Answered cases to consult:
>>> value_measured("FC(F)(F)c1ccc2nc3n(c2c1)C[C@@]1(CN2CCC1CC2)O3")
7.16
>>> value_measured("Clc1ccc2nc3n(c2c1)C[C@@]1(CN2CCC1CC2)O3")
7.85
>>> value_measured("Brc1nc2n(c1Br)CC1(CN3CCC1CC3)O2 (racemic)")
7.49

# return pEC50 for each item in the list
1. COc1ccc2c(c1)nc1n2C[C@@]2(CN3CCC2CC3)O1
2. Clc1cccc2nc3n(c12)C[C@@]1(CN2CCC1CC2)O3
3. Cc1cccc2c1nc1n2C[C@@]2(CN3CCC2CC3)O1
4. Brc1nc2n(c1Br)C[C@]1(CN3CCC1CC3)O2
5. Cc1ccc2nc3n(c2c1)C[C@@]1(CN2CCC1CC2)O3

Completion:
8.15
6.57
8.15
5.39
7.48

* * *

test: Selectivity ratio of IC50 for human 5-HT3A receptor expressed in HEK293 cells to EC50 for rat alpha7 nAChR expressed in HEK293 cells; assay type: cell-based
Field: Ratio IC50/EC50. Provide a value for each of the compounds that follow.

Answered cases to consult:
>>> value_measured("COc1ccc(-c2cccc3c2nc2n3C[C@@]3(CN4CCC3CC4)O2)cc1")
400
>>> value_measured("Cc1ccc2nc3n(c2c1)C[C@@]1(CN2CCC1CC2)O3")
0.2

Now for the compound whose Ratio IC50/EC50 we want.
Prompt: Which Ratio IC50/EC50 value belongs to `FC(F)(F)c1ccc2c(c1)nc1n2C[C@@]2(CN3CCC2CC3)O1` ?
Completion: 51

* * *

assay: Selectivity ratio of IC50 for human 5-HT3A receptor expressed in HEK293 cells to EC50 for rat alpha7 nAChR expressed in HEK293 cells; assay type: cell-based
Reported Property: Ratio IC50/EC50
Numbers only.

Answered cases to consult:
>>> value_measured("Clc1ccc2nc3n(c2c1)C[C@@]1(CN2CCC1CC2)O3")
0.6
>>> value_measured("Clc1ccc2c(c1)nc1n2C[C@@]2(CN3CCC2CC3)O1")
0.2
>>> value_measured("c1ccc2c(c1)nc1n2C[C@]2(CN3CCC2CC3)O1")
2
>>> value_measured("Cc1ccc2c(c1)nc1n2C[C@@]2(CN3CCC2CC3)O1")
2.6
>>> value_measured("Clc1cccc2nc3n(c12)C[C@@]1(CN2CCC1CC2)O3")
0.04
>>> value_measured("FC(F)(F)c1ccc2nc3n(c2c1)C[C@@]1(CN2CCC1CC2)O3")
0.25
>>> value_measured("c1ccc2c(c1)nc1n2C[C@@]2(CN3CCC2CC3)O1")
1.4
>>> value_measured("COc1ccc2c(c1)nc1n2C[C@@]2(CN3CCC2CC3)O1")
1.6
>>> value_measured("Clc1cccc2c1nc1n2C[C@@]2(CN3CCC2CC3)O1")
0.3
>>> value_measured("Cc1cccc2c1nc1n2C[C@@]2(CN3CCC2CC3)O1")
1

Now for the molecule whose Ratio IC50/EC50 we want.
Prompt: Which Ratio IC50/EC50 value belongs to `FC(F)(F)c1cccc2c1nc1n2C[C@@]2(CN3CCC2CC3)O1` ?
Completion: 0.5
